# tested.target: human GPR119 (Homo sapiens, UniProt Q8TDV5)
# method.summary: Functional cellular assay measuring GPR119-mediated cAMP release (HTRF) in HEK-293 cells stably expressing recombinant human GPR119
# cond: cAMP response, cell line expressing human GPR119, 30 minutes at room temperature
Response field label: string, one of class 1 (EC50 strictly below 0.1 µM) or class 0.

// known answers, use as guide
>  <compound>
O=C(CN1Cc2ccc(N3CC[C@@H](Oc4ccc(OCC(F)(F)F)nc4)C3=O)cc2C1=O)NC1CC1 [Example 4-36]

>  <tested.target>
human GPR119 (Homo sapiens, UniProt Q8TDV5)

>  <label.value>
class 0

$$$$
>  <compound>
COCCNC(=O)CN1Cc2c(F)cc(N3CC[C@@H](Oc4ccc(OCC5CC5)nc4)C3=O)cc2C1=O [Example 4-23]

>  <tested.target>
human GPR119 (Homo sapiens, UniProt Q8TDV5)

>  <label.value>
class 0

$$$$
>  <compound>
O=C(CN1Cc2ccc(N3CC[C@@H](Oc4ccc(OCC5CC5)nc4)C3=O)cc2C1=O)N(CCO)CCO [Example 4-33]

>  <tested.target>
human GPR119 (Homo sapiens, UniProt Q8TDV5)

>  <label.value>
class 0

$$$$
>  <compound>
O=C(CN1Cc2ccc(N3CC[C@@H](Oc4ccc(OCC5CC5)nc4)C3=O)cc2C1=O)NCCO [Example 4-05]

>  <tested.target>
human GPR119 (Homo sapiens, UniProt Q8TDV5)

>  <label.value>
class 0

$$$$
>  <compound>
CC(C)(C)OC(=O)CN1Cc2c(F)cc(N3CC[C@@H](Oc4ccc(OCC5CC5)nc4)C3=O)cc2C1=O [Example 1-01]

>  <tested.target>
human GPR119 (Homo sapiens, UniProt Q8TDV5)

>  <label.value>
class 1

$$$$
>  <compound>
CC(C)c1noc(-c2ccc(O[C@@H]3CCN(c4ccc5c(c4)C(=O)N(CC(=O)N(C)C)C5)C3=O)cc2)n1 [Example 2-34]

>  <tested.target>
human GPR119 (Homo sapiens, UniProt Q8TDV5)

>  <label.value>
class 1

$$$$

Threshold test, EC50 < 0.1 µM: CCOc1ccc(O[C@@H]2CCN(c3cc(F)c4c(c3)C(=O)N(CC(=O)OC)C4)C2=O)cn1 [Example 1-31]
class 1

Now consider C[S+]([O-])CN1Cc2ccc(N3CC[C@@H](Oc4ccc(OCC(F)(F)F)nc4)C3=O)cc2C1=O (some centres unmarked) [Example 1-54] .
class 1

====

# tested.target: human GPR119 (Homo sapiens, UniProt Q8TDV5)
# method.summary: Functional cellular assay measuring GPR119-mediated cAMP release (HTRF) in HEK-293 cells stably expressing recombinant human GPR119
# cond: cAMP response, cell line expressing human GPR119, 30 minutes at room temperature
pEC50: −log10 of the molar value.
Where pEC50 equals or exceeds 6, the correct label is rule met; where it does not, the label is rule not met.

>  <input.smiles>
CS(=O)(=O)CN1Cc2ccc(N3CC[C@@H](Oc4ccc(Oc5ccc(F)cc5)nc4)C3=O)cc2C1=O

>  <label.value>
rule met

$$$$
>  <input.smiles>
CS(=O)(=O)CN1Cc2ncc(N3CC[C@@H](Oc4ccc(OCC(F)(F)F)nc4)C3=O)cc2C1=O

>  <label.value>
rule met

$$$$
>  <input.smiles>
CN(C)C(=O)CN1Cc2ccc(N3CC[C@H](Oc4ccc(OCC5CC5)nc4)C3=O)cc2C1=O

>  <label.value>
rule met

$$$$
>  <input.smiles>
CN(C)C(=O)CN1Cc2ccc(N3CC[C@@H](Oc4ccc(NCC5CC5)nc4)C3=O)cc2C1=O

>  <label.value>
rule not met

$$$$

Exam item: decide whether the reported pEC50 for "CN(C)C(=O)CN1Cc2ccc(N3CC[C@@H](Oc4ccc(Oc5ccc(F)cc5)cc4)C3=O)cc2C1=O" is at least 6.
rule met

Now consider "CN(C)C(=O)CN1Cc2ccc(N3CC[C@@H](Oc4ccc(OC(F)(F)F)c(Cl)c4)C3=O)cc2C1=O" .
rule met

====

# tested.target: UniProt:Q8TDV5
# Sequence (Q8TDV5 1-335): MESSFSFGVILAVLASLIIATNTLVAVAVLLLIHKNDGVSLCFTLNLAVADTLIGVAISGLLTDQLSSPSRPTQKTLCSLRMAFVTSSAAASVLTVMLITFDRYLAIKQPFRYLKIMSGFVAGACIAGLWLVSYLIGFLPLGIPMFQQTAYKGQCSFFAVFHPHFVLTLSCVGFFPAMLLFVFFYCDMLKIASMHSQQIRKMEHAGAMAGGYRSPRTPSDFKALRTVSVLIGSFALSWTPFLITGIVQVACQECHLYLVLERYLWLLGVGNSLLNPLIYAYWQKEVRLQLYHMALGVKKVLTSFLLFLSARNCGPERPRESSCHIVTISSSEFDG
# method.summary: Functional cellular assay measuring GPR119-mediated cAMP release (HTRF) in HEK-293 cells stably expressing recombinant human GPR119
# cond: cAMP response, cell line expressing human GPR119, 30 minutes at room temperature
property: pEC50
Here pEC50 is given on a logarithmic scale as minus log10 of the concentration in mol/L.

>  <compound>
O=C(CN1Cc2ccc(N3CC[C@@H](Oc4ccc(OCC5CC5)nc4)C3=O)cc2C1=O)NC(CO)CO

>  <pEC50>
6.35

$$$$

Here is another compound to look at.
Look at this compound and give its reported pEC50. CN(C)C(=O)C1NC(=O)c2cc(N3CC[C@@H](Oc4ccc(OCC5CC5)nc4)C3=O)ccc2N1C (single isomer, unassigned) [Example 1-42]
6.44

====

# tested.target: human GPR119 (Homo sapiens, UniProt Q8TDV5)
# method.summary: Functional cellular assay measuring GPR119-mediated cAMP release (HTRF) in HEK-293 cells stably expressing recombinant human GPR119
# cond: cAMP response, cell line expressing human GPR119, 30 minutes at room temperature
property: pEC50
Here pEC50 is given on a logarithmic scale as minus log10 of the concentration in mol/L.

Look at this molecule and give its reported pEC50. CN(C)C(=O)CN1Cc2ccc(N3CC[C@@H](Oc4ccc(C(=O)C5CC5)c(F)c4)C3=O)cc2C1=O [Example 2-62]
7.23

Now consider CN(C)C(=O)CN1Cc2ccc(N3CC[C@@H](Oc4ccc(NC5=NC(=O)CS5)cc4)C3=O)cc2C1=O [Example 2-33] .
5.66

Now consider CN(C)C(=O)CN1Cc2ccc(N3CC[C@@H](Oc4ccc(-c5nccs5)cc4)C3=O)cc2C1=O [Example 2-42] .
6.93

Now consider Cc1nc(-c2ccc(O[C@@H]3CCN(c4ccc5c(c4)C(=O)N(CC(=O)N(C)C)C5)C3=O)cc2)no1 [Example 2-32] .
6.57

Now consider CC1(CN2Cc3c(F)cc(N4CC[C@@H](Oc5ccc(OCCC6CC6)nc5)C4=O)cc3C2=O)COC1 [Example 5-03] .
5.60

Now consider CCCCC(=O)c1ccc(O[C@@H]2CCN(c3ccc4c(c3)C(=O)N(CC(=O)N(C)C)C4)C2=O)cc1 [Example 2-12] .
7.36

Now consider CN(C)C(=O)CN1Cc2ccc(N3CC[C@@H](Oc4ccc(Oc5ccc(F)cc5)nc4)C3=O)cc2C1=O [Example 2-14] .
7.07

====

# tested.target: human GPR119 (Homo sapiens, UniProt Q8TDV5)
# Sequence (Q8TDV5 1-335): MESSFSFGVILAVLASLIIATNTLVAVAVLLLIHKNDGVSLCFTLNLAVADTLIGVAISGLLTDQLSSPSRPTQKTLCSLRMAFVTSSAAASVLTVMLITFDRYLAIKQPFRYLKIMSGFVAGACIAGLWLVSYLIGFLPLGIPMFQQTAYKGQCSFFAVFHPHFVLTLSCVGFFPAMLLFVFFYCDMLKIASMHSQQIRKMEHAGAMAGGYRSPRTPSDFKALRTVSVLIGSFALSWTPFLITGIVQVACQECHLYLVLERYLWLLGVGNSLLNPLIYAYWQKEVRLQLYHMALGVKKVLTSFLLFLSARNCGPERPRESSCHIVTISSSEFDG
# method.summary: Functional cellular assay measuring GPR119-mediated cAMP release (HTRF) in HEK-293 cells stably expressing recombinant human GPR119
# cond: cAMP response, cell line expressing human GPR119, 30 minutes at room temperature
property: pEC50
Here pEC50 is given on a logarithmic scale as minus log10 of the concentration in mol/L.

Check out these entries, answers already filled in.
>  <compound>
CCC(=O)c1ccc(O[C@@H]2CCN(c3ccc4c(c3)C(=O)N(CC(=O)N(C)C)C4)C2=O)cc1 [Example 2-11]

>  <tested.target>
human GPR119 (Homo sapiens, UniProt Q8TDV5)

>  <property>
pEC50

>  <observed>
6.57

$$$$
>  <compound>
O=C(CN1Cc2ccc(N3CC[C@@H](Oc4ccc(OCC5CC5)nc4)C3=O)cc2C1=O)NC[C@@H](O)CO [Example 4-35]

>  <tested.target>
human GPR119 (Homo sapiens, UniProt Q8TDV5)

>  <property>
pEC50

>  <observed>
6.25

$$$$
>  <compound>
CC1(C(=O)c2ccc(O[C@@H]3CCN(c4ccc5c(c4)C(=O)N(CC(N)=O)C5)C3=O)cn2)CC1 [Example 2-49]

>  <tested.target>
human GPR119 (Homo sapiens, UniProt Q8TDV5)

>  <property>
pEC50

>  <observed>
6.37

$$$$
>  <compound>
NC(=O)CN1Cc2ccc(N3CC[C@@H](Oc4ccc(C(=O)CCC5CC5)nc4)C3=O)cc2C1=O [Example 2-56]

>  <tested.target>
human GPR119 (Homo sapiens, UniProt Q8TDV5)

>  <property>
pEC50

>  <observed>
7.47

$$$$
>  <compound>
CN(C)C(=O)CN1Cc2ccc(N3CC[C@@H](Oc4ccc(Oc5ccccn5)cc4)C3=O)cc2C1=O [Example 2-23]

>  <tested.target>
human GPR119 (Homo sapiens, UniProt Q8TDV5)

>  <property>
pEC50

>  <observed>
6.58

$$$$
>  <compound>
CN1Cc2c(F)cc(N3CC[C@@H](Oc4ccc(OCC5CC5)nc4)C3=O)cc2C1=O [Example 1-23]

>  <tested.target>
human GPR119 (Homo sapiens, UniProt Q8TDV5)

>  <property>
pEC50

>  <observed>
6.16

$$$$
>  <compound>
CCCC(=O)c1ccc(O[C@@H]2CCN(c3ccc4c(c3)C(=O)N(CC(=O)N(C)C)C4)C2=O)cc1 [Example 2-13]

>  <tested.target>
human GPR119 (Homo sapiens, UniProt Q8TDV5)

>  <property>
pEC50

>  <observed>
7.12

$$$$
>  <compound>
Cc1csc(-c2ccc(O[C@@H]3CCN(c4ccc5c(c4)C(=O)N(CC(=O)N(C)C)C5)C3=O)cc2)n1 [Example 2-31]

>  <tested.target>
human GPR119 (Homo sapiens, UniProt Q8TDV5)

>  <property>
pEC50

>  <observed>
6.46

$$$$
>  <compound>
CCCCC(=O)c1ccc(O[C@@H]2CCN(c3ccc4c(c3)C(=O)N(CC(N)=O)C4)C2=O)cc1 [Example 2-54]

>  <tested.target>
human GPR119 (Homo sapiens, UniProt Q8TDV5)

>  <property>
pEC50

>  <observed>
7.42

$$$$
>  <compound>
CCOc1ccc(O[C@@H]2CCN(c3cc(F)c4c(c3)C(=O)N(CC(=O)N(CC)CC)C4)C2=O)cn1 [Example 4-14]

>  <tested.target>
human GPR119 (Homo sapiens, UniProt Q8TDV5)

>  <property>
pEC50

>  <observed>
6.54

$$$$

Param readout = pEC50; param system = human GPR119 (Homo sapiens, UniProt Q8TDV5); param query = O=C(CN1Cc2ccc(N3CC[C@@H](Oc4ccc(Oc5ccc(F)cc5)nc4)C3=O)cc2C1=O)N1CC(O)C1 [Example 4-10] ; response: value
6.68

Now consider CCNC(=O)CN1Cc2ccc(N3CC[C@@H](Oc4ccc(OCC(F)(F)F)nc4)C3=O)cc2C1=O [Example 4-39] .
6.69
